- targetOfAssay: Recombinant human FGFR1 (Homo sapiens, UniProt P11362)
- Sequence (P11362 22-822): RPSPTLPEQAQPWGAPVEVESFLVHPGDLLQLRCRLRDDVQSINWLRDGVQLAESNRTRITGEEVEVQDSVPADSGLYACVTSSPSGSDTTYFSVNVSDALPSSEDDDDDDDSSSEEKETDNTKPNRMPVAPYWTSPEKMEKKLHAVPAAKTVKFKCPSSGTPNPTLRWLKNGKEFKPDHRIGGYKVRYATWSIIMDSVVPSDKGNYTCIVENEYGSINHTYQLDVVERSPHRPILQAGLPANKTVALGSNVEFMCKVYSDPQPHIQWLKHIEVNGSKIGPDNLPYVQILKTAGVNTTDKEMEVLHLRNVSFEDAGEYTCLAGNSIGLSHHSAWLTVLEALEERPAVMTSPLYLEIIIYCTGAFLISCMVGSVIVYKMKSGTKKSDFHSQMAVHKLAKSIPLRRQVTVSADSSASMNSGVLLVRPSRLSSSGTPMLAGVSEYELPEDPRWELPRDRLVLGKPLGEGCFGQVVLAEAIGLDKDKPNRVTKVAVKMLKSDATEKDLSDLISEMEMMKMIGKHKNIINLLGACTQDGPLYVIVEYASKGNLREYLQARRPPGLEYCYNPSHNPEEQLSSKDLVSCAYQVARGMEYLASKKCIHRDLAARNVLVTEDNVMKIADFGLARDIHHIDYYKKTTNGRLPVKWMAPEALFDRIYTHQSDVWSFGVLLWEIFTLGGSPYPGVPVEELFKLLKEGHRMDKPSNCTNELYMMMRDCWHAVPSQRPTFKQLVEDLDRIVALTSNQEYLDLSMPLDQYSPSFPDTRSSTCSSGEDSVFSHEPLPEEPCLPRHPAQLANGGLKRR
- procedureSummary: Transcreener Kinase Assay of FGFR1
- Format: biochemical
- experimentalConditions: read-out: FGFR1 (FP) IC50
reportedProperty: pIC50
Numbers only, as −log10 of the molar value.

CCn1cc(Nc2ncc(/C=C/c3c(F)c(C(=O)NC)cc(OC)c3Cl)cn2)cn1 :: 7.77

Give pIC50 for all compounds that follow.
1. CNC(=O)c1cc(CCc2cnc(Nc3cnn(C(C)C)c3)nc2)c(F)c(OC)c1
2. CCNC(=O)c1cc(COc2cnc(Nc3ccc(N4C[C@@H](C)N[C@@H](C)C4)cc3)nc2)c(F)c(OC)c1
3. CNC(=O)c1cc(COc2cnc(Nc3ccc(N4C[C@@H](C)N[C@@H](C)C4)cc3)nc2)c(F)c(OC)c1
4. CONC(=O)c1cc(COc2cnc(Nc3cnn(C)c3)nc2)c(Cl)c(OC)c1
5. CNC(=O)c1cc(CCc2cnc(Nc3nc(C4CC4)cs3)nc2)c(Cl)c(OC)c1
6. CNC(=O)c1cc(CCc2cnc(Nc3cnn(-c4ccccn4)c3)nc2)c(Cl)c(OC)c1
7. CONC(=O)c1cc(CCc2cnc(Nc3ccc4nccn4c3)nc2)cc(OC)c1

1: 8.05; 2: 7.44; 3: 7.92; 4: 8.30; 5: 6.90; 6: 7.82; 7: 7.32

* * *

- targetOfAssay: Recombinant human FGFR2 (Homo sapiens, UniProt P21802)
- Sequence (P21802 22-821): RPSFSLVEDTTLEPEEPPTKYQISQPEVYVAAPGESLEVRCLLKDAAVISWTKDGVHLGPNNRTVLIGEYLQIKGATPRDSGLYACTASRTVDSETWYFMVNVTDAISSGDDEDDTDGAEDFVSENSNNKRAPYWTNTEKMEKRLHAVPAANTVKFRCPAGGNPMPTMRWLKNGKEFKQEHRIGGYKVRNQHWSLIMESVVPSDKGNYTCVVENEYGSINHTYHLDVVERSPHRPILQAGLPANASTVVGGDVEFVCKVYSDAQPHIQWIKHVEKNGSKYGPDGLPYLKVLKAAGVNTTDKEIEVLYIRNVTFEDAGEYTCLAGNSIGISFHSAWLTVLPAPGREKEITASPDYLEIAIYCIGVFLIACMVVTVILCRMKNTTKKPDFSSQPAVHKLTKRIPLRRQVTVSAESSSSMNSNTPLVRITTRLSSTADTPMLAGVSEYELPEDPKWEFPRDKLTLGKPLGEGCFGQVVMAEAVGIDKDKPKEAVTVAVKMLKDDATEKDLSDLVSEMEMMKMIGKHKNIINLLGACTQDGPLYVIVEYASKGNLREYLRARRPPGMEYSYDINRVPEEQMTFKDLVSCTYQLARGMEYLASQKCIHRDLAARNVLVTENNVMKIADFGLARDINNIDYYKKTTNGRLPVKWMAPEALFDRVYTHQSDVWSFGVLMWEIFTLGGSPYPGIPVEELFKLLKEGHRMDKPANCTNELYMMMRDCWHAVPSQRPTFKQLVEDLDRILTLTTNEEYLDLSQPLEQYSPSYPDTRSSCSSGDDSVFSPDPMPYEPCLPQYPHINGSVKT
- procedureSummary: Transcreener Kinase Assay of FGFR2
- Type: biochemical
- experimentalConditions: read-out: FGFR2 (FP) IC50
Please go through the items and note down their IC50.
One number for each entry, in nM.

Give IC50 for all compounds that follow.
1. CCN(CC)CCCn1cc(Nc2ncc(CCc3cc(C(=O)NC)cc(OC)c3F)cn2)cn1
2. CNC(=O)c1cc(CCc2cnc(Nc3ccc(CN4CCOCC4)cc3)nc2)c(F)c(OC)c1
3. CCOc1cc(CCc2cnc(Nc3ccc(N4CCN(CC)CC4)cc3)nc2)cc(C(=O)NOC)c1
4. CNC(=O)c1cc(CCc2cnc(Nc3cnn([C@H]4CCN(C)C4)c3)nc2)c(F)c(OC)c1
5. CNC(=O)c1cc(CCc2cnc(Nc3cnn([C@H]4CCCNC4)c3)nc2)c(F)c(OC)c1
6. CONC(=O)c1cc(CCc2cnc(Nc3ccc(OC)cc3)nc2)cc(OC)c1
7. CNC(=O)c1cc(CCc2cnc(Nc3ccn4c(COC)nnc4c3)nc2)c(F)c(OC)c1

10
6
113
11
6
7
11

Report value: IC50, system: Recombinant human FGFR2 (Homo sapiens, UniProt P21802), compound: `CCN(CC)CCn1cc(Nc2ncc(OCc3cc(C(=O)NC)cc(OC)c3Cl)cn2)cn1`
9

* * *

- Test system: RT-112
- procedureSummary: Cellular Proliferation Assay (Cell Counting Kit-8), RT-112
- Format: cell-based
- experimentalConditions: Homo sapiens, RT-112 cells, 72 hours
reportedProperty: pIC50
Numbers only, as −log10 of the molar value.

CNC(=O)c1cc(CCc2cnc(Nc3ccc(N4CCCCC4=O)cc3)nc2)c(F)c(OC)c1 :: 6.59
CNC(=O)c1cc(CCc2cnc(Nc3ccc(C(=O)N4CCN(C)CC4)cc3)nc2)c(Cl)c(OC)c1 :: 7.59
CCN(CC)CCn1cc(Nc2ncc(OCc3cc(C(=O)NC)cc(OC)c3F)cn2)cn1 :: 7.64
CCN1CCN(c2cc(Nc3ncc(CCc4cc(OC)cc(C(=O)NOC)c4)cn3)ccn2)CC1 :: 7.17
CNC(=O)c1cc(CCc2cnc(Nc3ccc(N4C[C@@H](C)N[C@@H](C)C4)cc3)nc2)c(F)c(OC)c1 :: 7.28
CNC(=O)c1cc(CCc2cnc(Nc3ccc(CN4CCOCC4)cc3)nc2)c(F)c(OC)c1 :: 6.80
CCn1cc(Nc2ncc(OCc3cc(C(=O)NC)cc(OC)c3Cl)cn2)cn1 :: 7.28
CNC(=O)c1cc(CCc2cnc(Nc3ccc4nnc(COC)n4c3)nc2)c(F)c(OC)c1 :: 6.26

Give pIC50 for all compounds that follow.
1. CNC(=O)c1cc(CCc2cnc(Nc3cnn(CCO)c3)nc2)c(F)c(OC)c1
2. CNC(=O)c1cc(CCc2cnc(Nc3cccc(N4CCOCC4)c3)nc2)c(F)c(OC)c1

[6.23, 7.07]

Give pIC50 for all compounds that follow.
1. CNC(=O)c1cc(CCc2cnc(Nc3cnn(C4CCN(C)CC4)c3)nc2)c(F)c(OC)c1
2. CCn1cc(Nc2ncc(CCc3cc(C(=O)NC)cc(OC)c3C#N)cn2)cn1
3. CNC(=O)c1cc(CCc2cnc(Nc3cnn(-c4ccc(C)nc4)c3)nc2)c(Cl)c(OC)c1
4. CNC(=O)c1cc(CCc2cnc(Nc3cnn(CCN4CCOCC4)c3)nc2)c(F)c(OC)c1

1: 6.87; 2: 6.02; 3: 7.06; 4: 6.84

Give pIC50 for all compounds that follow.
1. CCN1CCN(c2ccc(Nc3ncc(CCc4cc(OC)cc(C(=O)NC)c4)cn3)cc2)CC1
2. CNC(=O)c1cc(CCc2cnc(Nc3ccc(OC)nc3)nc2)c(F)c(OC)c1
3. CCN1CCC(n2cc(Nc3ncc(CCc4cc(C(=O)NC)cc(OC)c4F)cn3)cn2)CC1
4. CNC(=O)c1cc(CCc2cnc(Nc3cnn(CC4CCN(C)CC4)c3)nc2)c(F)c(OC)c1
5. CNC(=O)c1cc(CCc2cnc(Nc3cnn(C(C)C)c3)nc2)c(F)c(OC)c1
6. CONC(=O)c1cc(CCc2cnc(Nc3ccc(N4C[C@@H](C)N[C@@H](C)C4)c(F)c3)nc2)cc(OC)c1

6.21
6.62
7.00
7.07
7.44
7.51

Give pIC50 for all compounds that follow.
1. CONC(=O)c1cc(CCc2cnc(Nc3ccc4nccn4c3)nc2)cc(OC)c1
2. CNC(=O)c1cc(COc2cnc(Nc3ccc(N4C[C@@H](C)N[C@@H](C)C4)nc3)nc2)c(F)c(OC)c1
3. CNC(=O)c1cc(CCc2cnc(Nc3cnn(C4CCN(C)CC4)c3)nc2)c(Cl)c(OC)c1
4. CNC(=O)c1cc(CCc2cnc(Nc3cnn([C@@H]4CCOC4)c3)nc2)c(F)c(OC)c1
5. CNC(=O)c1cc(OC)c(Cl)c(/C=C/c2cnc(Nc3ccc(N4C[C@@H](C)N[C@@H](C)C4)cc3)nc2)c1F
6. CNC(=O)c1cc(CCc2cnc(Nc3nc(C4CC4)cs3)nc2)c(Cl)c(OC)c1
7. CNC(=O)c1cc(CCc2cnc(Nc3ccnc(OC)c3)nc2)c(F)c(OC)c1
8. CNC(=O)c1cc(COc2cnc(Nc3ccc(N4C[C@@H](C)N[C@@H](C)C4)c(C)c3)nc2)c(F)c(OC)c1

[6.53, 7.18, 7.07, 6.87, 7.72, 7.00, 6.82, 7.57]

Give pIC50 for all compounds that follow.
1. CCN1CCC[C@@H](n2cc(Nc3ncc(CCc4cc(C(=O)NC)cc(OC)c4F)cn3)cn2)C1
2. CNC(=O)c1cc(CCc2cnc(Nc3cnn(CCS(C)(=O)=O)c3)nc2)c(Cl)c(OC)c1

1. 7.19
2. 6.62

For the compound `CCN1CCN(c2ccc(Nc3ncc(/C=C/c4cc(C(=O)NC)cc(OC)c4F)cn3)cc2)CC1` , give its reported pIC50.
7.08

Values from patent US20160052926A1
